From: patent US8778929B2

Target: B-Raf (V600E)-kinase (Homo sapiens, UniProt P15056, V600E)
Sequence (P15056 whole entry V600E): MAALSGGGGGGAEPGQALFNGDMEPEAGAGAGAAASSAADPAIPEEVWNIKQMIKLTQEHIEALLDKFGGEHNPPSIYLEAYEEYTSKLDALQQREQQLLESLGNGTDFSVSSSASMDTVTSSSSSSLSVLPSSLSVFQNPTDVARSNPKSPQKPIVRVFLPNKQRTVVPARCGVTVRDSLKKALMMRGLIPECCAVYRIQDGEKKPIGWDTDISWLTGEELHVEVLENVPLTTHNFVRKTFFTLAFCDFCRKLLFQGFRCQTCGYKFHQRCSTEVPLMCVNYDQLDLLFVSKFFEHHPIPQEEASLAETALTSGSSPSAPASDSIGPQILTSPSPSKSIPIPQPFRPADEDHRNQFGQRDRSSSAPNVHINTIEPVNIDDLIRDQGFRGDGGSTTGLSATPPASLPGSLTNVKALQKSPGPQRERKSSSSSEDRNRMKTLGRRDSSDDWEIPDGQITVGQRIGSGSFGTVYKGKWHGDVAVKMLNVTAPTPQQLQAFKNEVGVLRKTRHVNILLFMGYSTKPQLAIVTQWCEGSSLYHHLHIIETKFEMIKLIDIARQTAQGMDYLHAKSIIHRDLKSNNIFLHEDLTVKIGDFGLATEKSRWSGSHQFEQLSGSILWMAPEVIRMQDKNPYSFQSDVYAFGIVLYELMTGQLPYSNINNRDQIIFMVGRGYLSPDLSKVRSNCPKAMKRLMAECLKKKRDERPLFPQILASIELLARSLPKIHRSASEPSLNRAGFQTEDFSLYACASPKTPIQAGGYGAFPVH
Assay: Kinase test B-Raf (V600E)
Type: biochemical
Details: compound concentration 2 μM; 100% = no inhibition, 0% = total inhibition; read-out: % CTL (residual activity of the enzyme relative to DMSO control)
Experimental: In a dilution series 10 μL of test substance solution are placed in a multiwell plate. The dilution series is selected so that generally a range of concentrations of 2 μM to 0.119 nM or 0.017 nM is covered. […] After the addition of 200 μL Enhancement Solution (Perkin Elmer, #4001-0010/#1244-105) the mixture is shaken for 10 min at RT and then measured in a Wallac Victor using the program “Delfia Time Resolved Fluorescence (Europium)”. […]
QUANTITY_MEASURED: remaining activity at 2 µM

1) CCNc1cc(NC(=O)c2cnc(C)c(-n3cc(-c4cnn(C)c4C)nn3)c2)cc(C(F)(F)F)c1 : 7.3%
2) Cc1ncc(NC(=O)c2cc(OC(F)(F)F)cc(N3CCN(C)CC3)c2)cc1-n1cc(-c2cncnc2)nn1 : 2.2%
3) Cc1ncc(C(=O)Nc2cc(C3CCN(C)CC3)cc(C(F)(F)F)c2)cc1-n1cc(-c2cnn(C)c2C)nn1 : 1.4%
4) Cc1ncc(C(=O)Nc2cc(C(C)(C)C)on2)cc1-n1cc(-c2cncc(N3CCN(C4CCCC4)CC3)c2)nn1 : 7.9%
5) Cc1ncc(NC(=O)c2cc(OC(F)(F)F)cc(N3CCN(C)CC3)c2)cc1-n1cc(-c2cnn(C)c2C)nn1 : 0.8%
6) COc1ccc(NC(=O)c2cnc(C)c(-n3cc(-c4cncc(N5CCN(C)CC5)c4)nn3)c2)cc1C(F)(F)F : 2%
7) COCCN(C)Cc1cc(NC(=O)c2cnc(C)c(-n3cc(-c4cnn(C)c4C)nn3)c2)cc(C(F)(F)F)c1 : 1.8%
8) Cc1ncc(C(=O)Nc2cc(C(C)(C)C)on2)cc1-n1cc(-c2cncc(N3CCC(CN4CCOCC4)CC3)c2)nn1 : 0.9%
9) Cc1ncc(C(=O)Nc2cc(CNC(C)C)c(C)c(C(F)(F)F)c2)cc1-n1cc(-c2cnn(C)c2C)nn1 : 1%
10) COc1c(CN(C)C)cc(C(F)(F)F)cc1NC(=O)c1cnc(C)c(-n2cc(-c3cnn(C)c3C)nn2)c1 : 4.6%
11) CCN(CC)c1cc(NC(=O)c2cnc(C)c(-n3cc(-c4cnn(C)c4C)nn3)c2)cc(C(F)(F)F)c1 : 1.7%
12) Cc1ncc(C(=O)Nc2cc(CNC(C)C)cc(C(F)(F)F)c2)cc1-n1cc(-c2cnn(C)c2C)nn1 : 1.6%
13) Cc1ncc(C(=O)Nc2cc(C(C)(C)C)on2)cc1-n1cc(-c2cncc(NC3CCOC3)c2)nn1 (stereo not drawn) : 2.5%
14) Cc1ncc(C(=O)Nc2cc(C3=CCN(C)CC3)cc(C(F)(F)F)c2)cc1-n1cc(-c2cnn(C)c2C)nn1 : 1.7%
15) Cc1ncc(C(=O)Nc2cc(N3CC[C@@H](N(C)C)C3)c(C)c(C(F)(F)F)c2)cc1-n1cc(-c2cnn(C)c2C)nn1 : 7.1%
16) Cc1ncc(C(=O)Nc2cc(CNC(C)C)c(Cl)c(C(F)(F)F)c2)cc1-n1cc(-c2cnn(C)c2C)nn1 : 1.2%
17) Cc1ncc(C(=O)Nc2cc(C(C)(C)C)on2)cc1-n1cc(-c2cncc(CN3CCCC3)c2)nn1 : 1.7%
18) Cc1ncc(NC(=O)c2cccc(OC(F)(F)F)c2)cc1-n1cc(-c2cncc(N3CCN(C)CC3)c2)nn1 : 1.3%
19) Cc1ncc(C(=O)Nc2cc(C(C)(C)C)on2)cc1-n1cc(-c2cncc(N3CCN(CC(F)(F)F)CC3)c2)nn1 : 2.1%
20) Cc1ncc(C(=O)Nc2nc(C(C)(C)C)cs2)cc1-n1cc(-c2cncc(N3CCN(C(C)C)CC3)c2)nn1 : 4%
21) COc1c(CNCC(C)C)cc(NC(=O)c2cnc(C)c(-n3cc(-c4cnn(C)c4C)nn3)c2)cc1C(F)(F)F : 3.1%
22) Cc1ccc(C(F)(F)F)cc1C(=O)Nc1cnc(C)c(-n2cc(-c3cnn(C)c3C)nn2)c1 : 6.6%
23) Cc1ncc(C(=O)Nc2cc(CN3CCCC3)c(Cl)c(C(F)(F)F)c2)cc1-n1cc(-c2cnn(C)c2C)nn1 : 1.4%
24) CCN1CCN(c2cncc(-c3cn(-c4cc(NC(=O)c5ccc(OC)c(C(F)(F)F)c5)cnc4C)nn3)c2)CC1 : 2.5%
25) Cc1ncc(C(=O)Nc2cc(N3CCN(C)CC3)c(F)c(C(F)(F)F)c2)cc1-n1cc(-c2cncs2)nn1 : 5.3%
26) Cc1ncc(NC(=O)c2cc(N3CCN(C)CC3)cc(C(F)(F)F)c2)cc1-n1cc(-c2cnn(C)c2C)nn1 : 4.4%
27) COc1c(CO)cc(NC(=O)c2cnc(C)c(-n3cc(-c4cnn(C)c4C)nn3)c2)cc1C(F)(F)F : 2.9%
